Test: Cmax in fed cynomolgus monkey at 5 mg/kg, po after 0.083 to 24 hrs by LC-MS/MS method
Assay type: ADME, organism-based, Macaca fascicularis
Design: dose 5 mg/kg, route oral
Details: in vivo

>  <MOLECULE>
COP(=O)(c1cc(C)cc(/C=C/C#N)c1)c1c(C(N)=O)[nH]c2ccc(Cl)cc12 (single isomer, unassigned; form 1)

>  <Cmax, µg/mL>
0.945

$$$$

---

Test: Cmax in fed beagle dog at 5 mg/kg, po after 0.083 to 24 hrs by LC-MS/MS method
Type: ADME, organism-based, Canis lupus familiaris
Design: dose 5 mg/kg, route oral
Conditions: in vivo

>  <MOLECULE>
COP(=O)(c1cc(C)cc(/C=C/C#N)c1)c1c(C(N)=O)[nH]c2ccc(Cl)cc12 (single isomer, unassigned; form 1) [FOSDEVIRINE]

>  <Cmax>
18 ng/mL

$$$$

---

Experiment: Tmax in fed cynomolgus monkey at 5 mg/kg, po by LC-MS/MS method
Assay type: ADME, organism-based, Macaca fascicularis
Settings: in vivo

>  <MOLECULE>
COP(=O)(c1cc(C)cc(/C=C/C#N)c1)c1c(C(N)=O)[nH]c2ccc(Cl)cc12 (single isomer, unassigned; form 1)

>  <UNIT OF MEASUREMENT>
h

>  <Tmax>
3

$$$$

---

Assay: Half life in fasted Sprague-Dawley rat at 10 mg/kg, po by LC-MS/MS method
Assay type: ADME, organism-based
Conditions: in vivo

>  <MOLECULE>
COP(=O)(c1cc(C)cc(/C=C/C#N)c1)c1c(C(N)=O)[nH]c2ccc(Cl)cc12 (single isomer, unassigned; form 1)

>  <half-life [h]>
5.9

$$$$

---

Test: Clearance in fasted Sprague-Dawley rat at 2 mg/kg, iv after 0.083 to 24 hrs by LC-MS/MS method
Format: ADME, organism-based
Settings: in vivo

>  <COMPOUND>
COP(=O)(c1cc(C)cc(/C=C/C#N)c1)c1c(C(N)=O)[nH]c2ccc(Cl)cc12 (single isomer, unassigned; form 1)

>  <clearance>
1.18 mL/min/kg

$$$$

---

Experiment: Half life in fed cynomolgus monkey at 5 mg/kg, po by LC-MS/MS method
Format: ADME, organism-based, Macaca fascicularis
Conditions: in vivo

>  <COMPOUND>
COP(=O)(c1cc(C)cc(/C=C/C#N)c1)c1c(C(N)=O)[nH]c2ccc(Cl)cc12 (single isomer, unassigned; form 1)

>  <UNIT OF MEASUREMENT>
min

>  <half-life>
186

$$$$

---

Test system: Human immunodeficiency virus 1
Test: Antiviral activity against HIV1 harboring reverse transcriptase Y181C/K103N double mutant infected in secondary MT4 cells assessed as inhibition of virus-induced cytopathogenicity after 4 days by MTS assay
Format: functional, organism-based
Conditions: Human immunodeficiency virus 1, MT4, 96 h
pEC50: −log10 of the molar value.

>  <MOLECULE>
COP(=O)(c1cccc(/C=C/C#N)c1)c1c(C(N)=O)[nH]c2ccc(Cl)cc12 (stereo unspecified)

>  <TESTED ON>
Human immunodeficiency virus 1

>  <pEC50>
7.31

$$$$

---

Experiment: Half life in monkey hepatocytes
Assay type: ADME, cell-based, Macaca mulatta, Hepatocyte
Conditions: rhesus monkey

>  <COMPOUND>
COP(=O)(c1cc(C)cc(/C=C/C#N)c1)c1c(C(N)=O)[nH]c2ccc(Cl)cc12 (single isomer, unassigned; form 1)

>  <half-life, min>
52

$$$$

---

Assay: Half life in fasted Sprague-Dawley rat at 2 mg/kg, iv by LC-MS/MS method
Assay type: ADME, organism-based
Settings: in vivo
ASSAY READOUT: half-life (min)

>  <MOLECULE>
COP(=O)(c1cc(C)cc(/C=C/C#N)c1)c1c(C(N)=O)[nH]c2ccc(Cl)cc12 (single isomer, unassigned; form 1)

>  <QUANTITATIVE READOUT>
12

$$$$
